# test protocol: Human HepG2 cell viability assay in 384 well format
# Assay type: toxicity, cell-based
# Design: dose 125 nL, time 70.5 hour; concentration not given beside the values
# protocol conditions: HepG2 cells, read-out: Inhibition
This section presents compounds with their documented cytotoxicity at 70.5 h values.
Respond with the bare value in %.

In the examples that follow, each entry is paired with its recorded cytotoxicity at 70.5 h.
- compound: "Cc1nc(C)n(CC2CN(CCCOc3ccccc3C)CCO2)n1 (stereo unspecified)"
  cytotoxicity at 70.5 h [%]: 11.3
- compound: "Cc1ccc(CNc2ccn(CCc3ccncc3)n2)s1"
  cytotoxicity at 70.5 h [%]: 2.73
- compound: "CC(=O)N1CC2(CCN(S(=O)(=O)N(C)C)CC2)C2(CCNC2=O)C1 (stereo unspecified)"
  cytotoxicity at 70.5 h [%]: -1.55
- compound: "CC(C)N1CCCCC1c1nc(N(C)C)ncc1I (stereo unspecified)"
  cytotoxicity at 70.5 h [%]: 23.9
- compound: "CCS(=O)(=O)NCC(=O)Nc1cc(CC(C)(C)C)n[nH]1"
  cytotoxicity at 70.5 h [%]: 0.46

// query Name the recorded cytotoxicity at 70.5 h of the compound listed here: CCc1ccc(C(=O)N2CCCC(c3nn[nH]n3)C2)cc1 (stereo unspecified)
// result -3.67

----------
# test protocol: Human HepG2 cell viability assay in 384 well format
# Type: toxicity, cell-based
# Parameters: dose 125 nL, time 70.5 hour; concentration not given beside the values
# protocol conditions: HepG2 cells, read-out: Inhibition
Listed below: cytotoxicity at 70.5 h values for each entry.
Remember to put the unit after the number in your answer.

See these solved cases before continuing.
- compound: "CCOCC1CN(Cc2ccsc2)Cc2cnn(C)c21 (stereo unspecified)"
  cytotoxicity at 70.5 h: "-0.486%"
- compound: "CCNC(=O)N1CCc2ccc(NC(=O)NCC3CC3)cc21"
  cytotoxicity at 70.5 h: "-12.1%"
- compound: "CCS(=O)(=O)NC[C@]12COC[C@H]1CN(Cc1ccccn1)C2"
  cytotoxicity at 70.5 h: "-3.72%"
- compound: "Cc1nc(COc2ccc(N(C)S(C)(=O)=O)cc2)sc1C"
  cytotoxicity at 70.5 h: "48%"
- compound: "COc1ccc(CNC(=O)Nc2ccc(S(=O)(=O)C(F)F)cc2)cc1"
  cytotoxicity at 70.5 h: "8.9%"

// query Look up and report measured cytotoxicity at 70.5 h for this entry: CC(C)CC(NC(=O)c1cnn(C)c1)C(=O)Nc1cc[nH]n1 (stereo unspecified)
// result 0.0249%

// query Name the recorded cytotoxicity at 70.5 h of the compound listed here: Cc1ccc(CNC2(Cc3cc(-c4ccccc4)on3)COC2)o1
// result -0.988%

// query Fill in reported cytotoxicity at 70.5 h for this entry: Cn1ccnc1CN1CCC2(CC1)CC(Oc1cccnc1)C2
// result 1.72%

// query Could you please provide reported cytotoxicity at 70.5 h for CC(C(=O)NCc1ccnc(OC2CCCC2)c1)n1cncn1 (stereo unspecified) ? Thanks!
// result -3.9%

// query # return recorded cytotoxicity at 70.5 h for entry CCN1C(=O)C(c2ccccc2)CC12CCN(S(C)(=O)=O)CC2 (stereo unspecified)
// result -9.88%

// query Return reported cytotoxicity at 70.5 h. Input compound: O=C(NCC(F)(F)F)C1CSCN1S(=O)(=O)c1ccc(F)cc1 (stereo unspecified)
// result -4.65%
